tested on: RAW-Dual (murine macrophage reporter line); experiment: NF-kB reporter (SEAP) activity fold change vs agonist alone; higher = enhanced NF-kB activity; conditions: modulator concentration 10 µM; agonist: MPLA […]
attribute_measured: NF-kB reporter

INSERT INTO assay_data (compound, attribute_measured, reading) VALUES
  ('COc1cccc(S(=O)(=O)N2CCCC(c3nnc(C(F)(F)F)o3)C2)c1 (stereo not given)', 'NF-kB reporter', 1.03),
  ('CCCCc1oc2ccccc2c1C(=O)c1cc(I)c(OCCN(CC)CC)c(I)c1', 'NF-kB reporter', 1.15),
  ('CC1CCc2c(N3CCC(O)CC3)c(F)cc3c(=O)c(C(=O)O)cn1c23 (stereo not given)', 'NF-kB reporter', 0.992),
  ('CCOc1ccc2nc(S(N)(=O)=O)sc2c1', 'NF-kB reporter', 0.985),
  ('CCCCCOC(=O)COc1ccc(S(=O)(=O)c2ccc(OCC(=O)OCCCCC)cc2)cc1', 'NF-kB reporter', 1.12);

====

tested on: RAW-Dual (murine macrophage reporter line); assay: IRF reporter (Lucia luciferase) activity fold change vs agonist alone; higher = enhanced IRF activity; conditions: modulator concentration 10 µM; agonist: 3'3'-cGAMP 10 ug/mL
attribute_measured: IRF reporter

INSERT INTO assay_data (compound, assayed_target, attribute_measured, reading) VALUES
  ('CNC(=O)[C@@H](NC(=O)[C@H](CC(C)C)[C@H](O)C(=O)NO)C(C)(C)C', 'RAW-Dual (murine macrophage reporter line)', 'IRF reporter', 0.868),
  ('Cc1ccc2nc(C)c(NC(=O)c3ccc4ccccc4n3)c(=O)n2c1', 'RAW-Dual (murine macrophage reporter line)', 'IRF reporter', 0.793),
  ('CCC(C(=O)N1CCN(CCn2ccnc2-c2ccccc2)CC1)c1ccccc1 (configuration not stated)', 'RAW-Dual (murine macrophage reporter line)', 'IRF reporter', 1),
  ('Cc1ccc(C)c(C(=O)c2ccccc2NC(=O)c2ccccn2)c1', 'RAW-Dual (murine macrophage reporter line)', 'IRF reporter', 1.01),
  ('Cc1ccc(C(=O)NC2CCN(c3ccc4nncn4n3)C2)c(C)c1 (configuration not stated)', 'RAW-Dual (murine macrophage reporter line)', 'IRF reporter', 1.03),
  ('Cc1nc2n(c(=O)c1CCN1CCC(c3noc4cc(F)ccc34)CC1)CCCC2O (configuration not stated)', 'RAW-Dual (murine macrophage reporter line)', 'IRF reporter', 0.902),
  ('N=C(N)c1ccc(OCCCCCOc2ccc(C(=N)N)cc2)cc1.O=S(=O)(O)CCO.O=S(=O)(O)CCO', 'RAW-Dual (murine macrophage reporter line)', 'IRF reporter', 0.715),
  ('Cc1ccc(C(=O)NC(=S)Nc2nc(-c3cccc([N+](=O)[O-])c3)cs2)cc1C', 'RAW-Dual (murine macrophage reporter line)', 'IRF reporter', 0.931),
  ('COc1ccc(OC)c(C=NNC(=O)c2cc(C)oc2C)c1', 'RAW-Dual (murine macrophage reporter line)', 'IRF reporter', 0.936),
  ('CC1CCc2cc(F)cc3c(=O)c(C(=O)O)cn1c23 (configuration not stated)', 'RAW-Dual (murine macrophage reporter line)', 'IRF reporter', 0.955),
  ('CCCc1cc(=O)oc2cc(OCC(=O)OC)c(Cl)cc12', 'RAW-Dual (murine macrophage reporter line)', 'IRF reporter', 0.96),
  ('CCOc1ccc2oc(-c3ccccc3)c(C(=O)N3CCN(C)CC3)c2c1', 'RAW-Dual (murine macrophage reporter line)', 'IRF reporter', 1.05),
  ('O=C(Nc1cccnc1)c1ccc(OC2CCOCC2)nc1', 'RAW-Dual (murine macrophage reporter line)', 'IRF reporter', 0.912),
  ('CCOC(=O)[C@H](CCc1ccccc1)N[C@H]1CCc2ccccc2N(CC(=O)O)C1=O.Cl', 'RAW-Dual (murine macrophage reporter line)', 'IRF reporter', 0.947),
  ('O=c1[nH]c(=O)n([C@H]2C[C@H](O)[C@@H](CO)O2)cc1I', 'RAW-Dual (murine macrophage reporter line)', 'IRF reporter', 1.04),
  ('CCOc1ccc(NC(=O)CC2Nc3cccc4cccc(c34)NC2=O)cc1 (configuration not stated)', 'RAW-Dual (murine macrophage reporter line)', 'IRF reporter', 0.884),
  ('COc1ccc(CNc2oc(-c3ccc(COc4ccccc4C)o3)nc2C#N)cc1', 'RAW-Dual (murine macrophage reporter line)', 'IRF reporter', 1.3),
  ('NC(=O)c1cn(Cc2c(F)cccc2F)nn1', 'RAW-Dual (murine macrophage reporter line)', 'IRF reporter', 1.17),
  ('Oc1cccc(C=Nc2ccc(N=Cc3cccc(O)c3O)cc2)c1O', 'RAW-Dual (murine macrophage reporter line)', 'IRF reporter', 0.712),
  ('COc1ccc(C2Nc3ccc(C(=O)c4ccccc4)cc3NC3=C2C(=O)CCC3)c(OC)c1 (configuration not stated)', 'RAW-Dual (murine macrophage reporter line)', 'IRF reporter', 0.933),
  ('C=CCN1C(=O)C(=C2C(=O)N(Cc3ccccc3F)c3ccccc32)SC1=S', 'RAW-Dual (murine macrophage reporter line)', 'IRF reporter', 0.904),
  ('Clc1cccc(C=Nc2ccc(N=Cc3cccc(Cl)c3Cl)cc2)c1Cl', 'RAW-Dual (murine macrophage reporter line)', 'IRF reporter', 0.815);

====

system: RAW-Dual (murine macrophage reporter line); experiment: NF-kB reporter (SEAP) activity fold change vs agonist alone; higher = enhanced NF-kB activity; conditions: modulator concentration 10 µM; agonist: CpG ODN 1826 0.5 ug/mL
Some molecules, each annotated with its measured NF-kB reporter.
attribute_measured: NF-kB reporter

INSERT INTO measurements (molecule, reading) VALUES
  ('CC(=NN1CCN(Cc2cccc3ccccc23)CC1)c1ccc(Br)cc1', 1.08),
  ('CCN(CC)c1ccc(C2Nc3ccccc3-c3nnc(SC)nc3O2)c(OC)c1 (stereo unspecified)', 0.889),
  ('CN1CCC2(CC1)NC(=O)N(CC(=O)N1CCc3ccccc31)C2=O', 0.927),
  ('COC(=O)C1=CN(CC2CCCO2)C=C(C(=O)OC)C1c1ccc(F)cc1 (stereo unspecified)', 1.06),
  ('O=C(NN=Cc1c(O)ccc2ccccc12)c1[nH]ncc1I', 1.93),
  ('CNc1ncnc2c1ncn2[C@@H]1O[C@H](CO)[C@@H](O)[C@H]1O [Prestw-338]', 0.931),
  ('O=C(Nc1ccc(F)c([N+](=O)[O-])c1)c1cccs1', 1.07),
  ('O=C(CCCc1ccccc1)NCC1(O)CCCC1', 0.858),
  ('CC(C)n1cnc(S(=O)(=O)N2CCC(S(=O)(=O)Cc3ccccc3)CC2)c1', 0.891),
  ('CC1(C)OC[C@@H](COC(=O)CCc2ccc(OC[C@@H](O)CNCCNC(=O)N3CCOCC3)cc2)O1.Cl', 1.05),
  ('CC1CCc2c(N3CCC(O)CC3)c(F)cc3c(=O)c(C(=O)O)cn1c23 (stereo unspecified)', 0.975);

====

Below, each entry is listed alongside its reported viability score.
test system: RAW-Dual (murine macrophage reporter line); assay: viability score (confluency relative to resting cells, overnight) (fraction); higher = more viable, active = viable (0.7 or more); conditions: modulator concentration 10 µM
attribute_measured: viability score

INSERT INTO results (compound, assayed_target, attribute_measured, reading) VALUES
  ('Cc1cccc(C(=O)ON=C(c2ccncc2)c2ccc([N+](=O)[O-])cc2)c1', 'RAW-Dual (murine macrophage reporter line)', 'viability score', 1),
  ('CC(C)CC(C(=O)Nc1ccc(Cl)cc1)N1C(=O)c2ccccc2C1=O (stereo not given)', 'RAW-Dual (murine macrophage reporter line)', 'viability score', 0.6),
  ('C=CCn1c(SCC(=O)NCCN2CCOCC2)nc2sc3c(c2c1=O)CCC3', 'RAW-Dual (murine macrophage reporter line)', 'viability score', 1.01),
  ('COc1ccc(C=NNC(=O)C2COc3cc4ccccc4cc3O2)c(O)c1 (stereo not given)', 'RAW-Dual (murine macrophage reporter line)', 'viability score', 1.01),
  ('OC(C(=NN=C(c1ccccc1)C(O)c1ccccc1)c1ccccc1)c1ccccc1 (stereo not given)', 'RAW-Dual (murine macrophage reporter line)', 'viability score', 0.974),
  ('COc1ccc(NC(=O)Cc2cn(Cc3ccccc3)c3ccccc23)cc1OC', 'RAW-Dual (murine macrophage reporter line)', 'viability score', 0.96),
  ('COC(=O)C1=C(C)NC(C)=C(C(=O)O[C@@H]2CCCN(Cc3ccccc3)C2)[C@@H]1c1cccc([N+](=O)[O-])c1.Cl', 'RAW-Dual (murine macrophage reporter line)', 'viability score', 0.997),
  ('O=c1c(O)c(-c2ccc(O)c(O)c2)oc2cc(O)cc(O)c12', 'RAW-Dual (murine macrophage reporter line)', 'viability score', 0.982),
  ('CNS(=O)(=O)C[C@H]1CC[C@H](N(C)c2ncnc3[nH]ccc23)CC1.O=C(O)/C=C\C(=O)O', 'RAW-Dual (murine macrophage reporter line)', 'viability score', 0.997),
  ('CC(=O)c1c(C)c2cnc(Nc3ccc(N4CCNCC4)cn3)nc2n(C2CCCC2)c1=O.Cl', 'RAW-Dual (murine macrophage reporter line)', 'viability score', 0.982);
